These measurements were taken from ChEMBL document CHEMBL1150756.

Assay: Toxicity in po dosed dd mouse
Assay type: organism-based
Settings: in vivo
observable: LD50

*Q* Give the measured LD50 of CC(=O)OC(C)(C)/C=C/C(=O)[C@](C)(O)[C@H]1[C@H](O)C[C@@]2(C)[C@@H]3CC=C4[C@@H](C[C@H](O)C(=O)C4(C)C)[C@]3(C)C(=O)C[C@]12C [CUCURBITACIN B] .
*A* 10.9 mg/kg
